- Test system: HepaRG
- TEST_DETAILS: LDH release cytotoxicity, % of total lysis control; higher = more cytotoxic
- APPLIED_CONDITIONS: 3.14647 µM; 48 h
Below: a set of entries, each annotated with reported LDH release cytotoxicity.
The response must be a number in % with no trailing unit.

Answered examples (3):
CN(C)C(=O)Nc1ccc(Cl)c(Cl)c1 : -1.47
CCCCOC(=O)C(C)Oc1ccc(Oc2ccc(C#N)cc2F)cc1 (centres undefined) : -0.485
COP(=S)(OC)Oc1nc(Cl)c(Cl)cc1Cl : -1.09

Switching to the query record.
Report LDH release cytotoxicity, nothing else, for this compound: COc1ccc(C(c2ccc(OC)cc2)C(Cl)(Cl)Cl)cc1
0.0841

###

- System: HepaRG
- TEST_DETAILS: LDH release cytotoxicity, % of total lysis control; higher = more cytotoxic
- APPLIED_CONDITIONS: 3.16228 µM; 48 h
RECORDED_METRIC: LDH release cytotoxicity (%)
State just the number; it will be interpreted in %.

CCO[Si](CCCNC(N)=O)(OCC)OCC [1-[3-(Triethoxysilyl)propyl]urea] : -2.28

Retrieve LDH release cytotoxicity measured for c1ccc2cc3ccccc3cc2c1 and print it.
-2.51

Tell us which LDH release cytotoxicity value is on record for Nc1cc2c3c(c1)C(c1ccccc1)=NC(NC(=O)c1cccnc1)C(=O)N3CC2 (centres undefined)
-0.301

Check the records and state LDH release cytotoxicity for C=CC(=O)NCNC(=O)C=C [N,N'-Methylenebisacrylamide]
-0.3

Quote LDH release cytotoxicity reported for C=CC1(C)OC(=O)N(c2cc(Cl)cc(Cl)c2)C1=O (centres undefined) please.
-1.59

Using known records, supply LDH release cytotoxicity for CN(C)C1C(=O)C(C(N)=O)C(=O)C2(O)C(=O)C3C(=O)c4c(O)cccc4C(C)(O)C3C(O)C12 (centres undefined) [Oxytetracycline dihydrate]
-1.59

###

Let's look at some compounds and their measured LDH release cytotoxicity.
- Test system: HepaRG
- TEST_DETAILS: LDH release cytotoxicity, % of total lysis control; higher = more cytotoxic
- APPLIED_CONDITIONS: 0.1 µM; 48 h
Express the result in % but write the number alone.

Some compounds with recorded LDH release cytotoxicity:
ClC1=C(Cl)C2(Cl)C3C4CC(C5OC45)C3C1(Cl)C2(Cl)Cl (centres undefined) [Endrin] : -0.149
CC1CC2C3CCC4=CC(=O)C=CC4(C)C3(F)C(O)CC2(C)C1(O)C(=O)COP(=O)(O)O (centres undefined) [Dexamethasone sodium phosphate] : -1.19
CC(C)c1nnc2ccc(-c3ocnc3-c3cc(F)ccc3F)cn12 : -1.01
COc1cc(Cl)c(OC)cc1Cl [Chloroneb] : -0.787
CN1CC=NC1=S [Methimazole] : -1.69
CC(O)CC(C)(C)O (centres undefined) [2-Methyl-2,4-pentanediol] : -2.18
CC(C)(C)C(O)(CCc1ccc(Cl)cc1)Cn1cncn1 (centres undefined) [Tebuconazole] : -0.0947
CCC(=CC(N=O)C(N)=O)C(C)[N+](=O)[O-] (centres undefined) : -1.13

Give me measured LDH release cytotoxicity, please, for this compound: CN(C)C(=S)SSC(=S)N(C)C [Thiram]
-2.1

Item O=C1CN(N=Cc2ccc([N+](=O)[O-])o2)C(=O)N1 [Nitrofurantoin] : provide LDH release cytotoxicity
-1.36

For the compound c1ccc2c(c1)-c1cccc3c1c-2cc1ccccc13 [Benzo(b)fluoranthene] , give its reported LDH release cytotoxicity.
-2.8

Identify measured LDH release cytotoxicity associated with COc1cccc(C(=O)NN(C(=O)c2cc(C)cc(C)c2)C(C)(C)C)c1C [Methoxyfenozide]
-1.31

Name the recorded LDH release cytotoxicity of the compound listed here: ClC(Cl)=C(c1ccc(Cl)cc1)c1ccc(Cl)cc1 [p,p'-DDE]
-0.017

Respond only with LDH release cytotoxicity recorded for CC(C)=CCC/C(C)=C/CO [Geraniol]
-2.89

Quote LDH release cytotoxicity reported for CC(C)(C)c1cc(O)ccc1O [tert-Butylhydroquinone] please.
-1.78

Kindly indicate its recorded LDH release cytotoxicity. Item: COc1c(Cl)ccc(Cl)c1C(=O)O [Dicamba]
-1.52

Return LDH release cytotoxicity for the following compound: CC1(C)NC(=O)N(c2ccc([N+](=O)[O-])c(C(F)(F)F)c2)C1=O
-2.02

Dear colleague, please send me the reported LDH release cytotoxicity for COP(=S)(OC)SCn1nnc2ccccc2c1=O [Azinphos-methyl] when you can.
-0.757

Specify reported LDH release cytotoxicity for the compound shown: CC(=O)CC(c1ccccc1)C1C(=O)Oc2ccccc2C1=O (centres undefined) [Warfarin]
-1.26

Quick one: give measured LDH release cytotoxicity for CNCc1cc(F)ccc1Oc1ccc(Cl)c(Cl)c1
-10

Given ClC1=C(Cl)C2(Cl)C3C4OC4C(Cl)C3C1(Cl)C2(Cl)Cl (centres undefined) [Heptachlor epoxide B] , respond with its LDH release cytotoxicity.
-4.16

Please give measured LDH release cytotoxicity of the following entry: CC(C)(C)c1cc(C(C)(C)C)c(O)c(C(C)(C)C)c1 [2,4,6-Tris(tert-butyl)phenol]
-0.143

Return reported LDH release cytotoxicity. Input compound: CC1=C(C)S(=O)(=O)CCS1(=O)=O [Dimethipin]
-2.52

Supply recorded LDH release cytotoxicity for Cc1c(C(=O)O)c(O)cc2c1C(=O)c1c(O)c(C3OC(CO)C(O)C(O)C3O)c(O)c(O)c1C2=O (centres undefined) [Carminic acid] here.
-11.1

Tell me measured LDH release cytotoxicity for CCC(C)(C)C1CCC(O)CC1 (centres undefined) [4-(2-Methylbutan-2-yl)cyclohexanol] please.
-1.92

Check the records and state LDH release cytotoxicity for Cn1c(=O)cc(Oc2ccc(F)cc2F)c2cnc(NCC(C)(C)O)nc21
-1.64

Please give measured LDH release cytotoxicity of the following entry: CNC1CCC(c2ccc(Cl)c(Cl)c2)c2ccc(S(N)(=O)=O)cc21 (centres undefined)
-2.15
